Listing of entries alongside the reported solubility.
Assay: physchem
Settings: pH 5.5, Solubility Conc.
Procedure: From a stock solution in vehicle, either H2O or 10 mM phosphate, containing 1 mg (as weighed) compound per ml, 8-11 aliquots are withdrawn and pH-adjusted individually with HCl/NaOH, to cover the whole pH range.
Positions of bridges follow the written chain, without caps; N, C: chain ends. Non-standard residues stand in square brackets, D forms with d. Residues, ends and D or L forms follow the SMILES beside them. Groups on a side chain read outwards from the residue. *: point of attachment. Lys(CH2CO2H)2 = N[C@@H](CCCCN(CC(=O)O)CC(=O)O)C(=O)O; C18 diacid = O=C(O)CCCCCCCCCCCCCCCCC(=O)*; C16 diacid = O=C(O)CCCCCCCCCCCCCCC(=O)*; hCys = N[C@@H](CCS)C(=O)O; Orn = NCCC[C@H](N)C(=O)O; AEEA = NCCOCCOCC(=O)O
propertyMeasured: solubility (µM)

>>> numericvalue("CC(=O)N[C@H]1CCC(=O)NCCC[C@@H](C(=O)N2CCC[C@H]2C(=O)N2CCC[C@H]2C(=O)N[C@@H](CC(=O)O)C(=O)N[C@@H](CCCCN(CC(=O)O)CC(=O)O)C(=O)N[C@@H](CCCCNC(=O)COCCOCCNC(=O)CCCCCCCCCCCCCCCCC(=O)O)C(N)=O)NC(=O)[C@H](Cc2c[nH]c3ccccc23)NC(=O)[C@H](CCCNC(=N)N)NC(=O)[C@@H](Cc2ccccc2)NC(=O)[C@H](Cc2c[nH]cn2)NC1=O [Example 26] (Ac-EH[dF]RW[Orn]PPD[Lys(CH2CO2H)2]K([AEEA-C18 diacid])-NH2; lactam 1-6)")
49
>>> numericvalue("CC(=O)N[C@H]1CCC(=O)NCCC[C@@H](C(=O)N2CCC[C@H]2C(=O)N2CCC[C@H]2C(=O)N[C@@H](CC(=O)O)C(=O)N[C@@H](CCCCN(CC(=O)O)CC(=O)O)C(=O)N[C@@H](CCCCNC(=O)COCCOCCNC(=O)CCCCCCCCCCCCCCC(=O)O)C(N)=O)NC(=O)[C@H](Cc2c[nH]c3ccccc23)NC(=O)[C@H](CCCNC(=N)N)NC(=O)[C@@H](Cc2ccccc2)NC(=O)[C@H](Cc2c[nH]cn2)NC1=O [Example 13] (Ac-EH[dF]RW[Orn]PPD[Lys(CH2CO2H)2]K([AEEA-C16 diacid])-NH2; lactam 1-6)")
348
>>> numericvalue("CC(=O)N[C@H]1CCSSC[C@@H](C(=O)N2CCC[C@H]2C(=O)N2CCC[C@H]2C(=O)N[C@@H](CO)C(=O)N[C@@H](CCC(=O)O)C(=O)N[C@@H](CCCCN(CC(=O)O)CC(=O)O)C(=O)N[C@@H](CCCCNC(=O)COCCOCCNC(=O)CCCCCCCCCCCCCCC(=O)O)C(N)=O)NC(=O)[C@H](Cc2c[nH]c3ccccc23)NC(=O)[C@H](CCCNC(=N)N)NC(=O)[C@@H](Cc2ccccc2)NC(=O)[C@H](Cc2c[nH]cn2)NC1=O [Example 70] (Ac-[hCys]H[dF]RWCPPSE[Lys(CH2CO2H)2]K([AEEA-C16 diacid])-NH2; disulfide 1-6)")
59

---

test: physchem; details: pH 4, Solubility Conc.
Positions of bridges follow the written chain, without caps; N, C: chain ends. Non-standard residues stand in square brackets, D forms with d. Residues, ends and D or L forms follow the SMILES beside them. Groups on a side chain read outwards from the residue. *: point of attachment. Lys(CH2CO2H)2 = N[C@@H](CCCCN(CC(=O)O)CC(=O)O)C(=O)O; C16 diacid = O=C(O)CCCCCCCCCCCCCCC(=O)*; hCys = N[C@@H](CCS)C(=O)O; AEEA = NCCOCCOCC(=O)O
Listing of entries alongside the reported solubility.
propertyMeasured: solubility (µM)

>>> numericvalue("CC(=O)N[C@H]1CCSSC[C@@H](C(=O)N[C@@H](CO)C(=O)N2CCC[C@H]2C(=O)N[C@@H](CCCCN)C(=O)N[C@@H](CCC(=O)O)C(=O)N[C@@H](CCCCN(CC(=O)O)CC(=O)O)C(=O)N[C@@H](CCCCNC(=O)COCCOCCNC(=O)CCCCCCCCCCCCCCC(=O)O)C(N)=O)NC(=O)[C@H](Cc2c[nH]c3ccccc23)NC(=O)[C@H](CCCNC(=N)N)NC(=O)[C@@H](Cc2ccccc2)NC(=O)[C@H](Cc2c[nH]cn2)NC1=O [Example 60] (Ac-[hCys]H[dF]RWCSPKE[Lys(CH2CO2H)2]K([AEEA-C16 diacid])-NH2; disulfide 1-6)")
424
>>> numericvalue("CC(=O)N[C@H]1CSSC[C@@H](C(=O)N2CCC[C@H]2C(=O)N2CCC[C@H]2C(=O)N[C@@H](CCCCN)C(=O)N[C@@H](CCC(=O)O)C(=O)N[C@@H](CCC(=O)O)C(=O)N[C@@H](CCCCNC(=O)COCCOCCNC(=O)CCCCCCCCCCCCCCC(=O)O)C(N)=O)NC(=O)CNC(=O)[C@H](Cc2c[nH]c3ccccc23)NC(=O)[C@H](CCCNC(=N)N)NC(=O)[C@@H](Cc2ccccc2)NC(=O)[C@H](Cc2c[nH]cn2)NC(=O)[C@H](CCC(=O)O)NC1=O [Example 68] (Ac-CEH[dF]RWGCPPKEEK([AEEA-C16 diacid])-NH2; disulfide 1-8)")
167
